experimental target: human JAK1 (a.a. 837-1142) (Homo sapiens, UniProt P23458)
pIC50: −log10 of the molar value.
Here, each record is paired with measured pIC50 data.

Solved entries (count: 2):
structure=C[C@H](O)CNCc1cc(OC2CCN([C@H]3C[C@](CC#N)(n4cc(-c5ncnc6[nH]ccc56)cn4)C3)CC2)nc(C(F)(F)F)c1 observed_measurement="> 8.00"
structure=C[C@@H](O)CNCc1cc(OC2CCN([C@H]3C[C@](CC#N)(n4cc(-c5ncnc6[nH]ccc56)cn4)C3)CC2)nc(C(F)(F)F)c1 observed_measurement="> 8.00"

Query molecule follows.
GET pIC50 | system: human JAK1 (a.a. 837-1142) (Homo sapiens, UniProt P23458) | item: N#CC[C@]1(n2cc(-c3ncnc4[nH]ccc34)cn2)C[C@H](N2CCC(Oc3cc(CN4CCC[C@@H]4CO)cc(C(F)(F)F)n3)CC2)C1
> 8.00

Data provenance is patent US20240307353A1.
